The reader will find reported % Blockade of IFNγ release, MLR; D3 values listed item by item below.
Target: T1, human CD48 (on primary human peripheral blood mononuclear cells) (human, UniProt P09326 27-220)
T1 sequence: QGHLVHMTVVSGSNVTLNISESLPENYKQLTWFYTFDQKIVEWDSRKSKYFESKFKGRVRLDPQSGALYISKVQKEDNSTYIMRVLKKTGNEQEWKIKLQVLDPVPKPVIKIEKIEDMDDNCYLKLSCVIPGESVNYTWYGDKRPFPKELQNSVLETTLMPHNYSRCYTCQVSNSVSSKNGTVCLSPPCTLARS
Test: cell-based or functional assay
Only the number, expressed in %, is required.

Solved cases (2 shown):
H4H1707N (antibody, V domains shown, Human IgG4 Fc (H4H) form of 1707N) VH: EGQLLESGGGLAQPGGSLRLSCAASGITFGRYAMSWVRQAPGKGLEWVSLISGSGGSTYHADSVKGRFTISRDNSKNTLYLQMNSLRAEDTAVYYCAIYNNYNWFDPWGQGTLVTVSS VL: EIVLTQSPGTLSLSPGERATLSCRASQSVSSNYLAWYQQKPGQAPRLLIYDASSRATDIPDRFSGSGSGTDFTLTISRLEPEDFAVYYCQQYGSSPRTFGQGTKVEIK
78
H4H1769Pa (antibody, human IgG4, V domains shown) VH: QVQLVQSGAEVKKPGASVKVSCKTSGYTFAGYGITWVRQAPGRGLEWMGWVSAYNGDTDYAQSLQGRVTMTTDTSTSTAYMELRSLRSDDTAMYYCARDRYSSSSGYFDYWGQGTLVTVSS VL: DIQMTQSPSSVSASVGDRVTITCRASQGISSWLAWHQQKPGKAPKVLIYAASSLHSGVPSRFSGSGSGTEFTLTISSLQPEDFATYYCQQANTFPYTFGQGTKLEIK
39

Task item: Provide % Blockade of IFNγ release, MLR; D3 value for the following binder: H4H1775P (antibody, human IgG4, V domains shown, Human IgG4 Fc (H4H)) VH: QVQLVESGGGVVQPGRSLRLSCAASGFTFSNYGMHWVRQAPGKGLEWVAVIWYDESGKHYADSVKGRFTISRDNSQNTLYLQMTSLRAEDTAVYYCARDRWTYSHYFEYWGQGTLVTVSS VL: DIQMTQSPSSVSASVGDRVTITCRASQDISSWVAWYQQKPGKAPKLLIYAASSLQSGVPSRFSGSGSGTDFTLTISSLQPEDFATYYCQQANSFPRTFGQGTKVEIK
Reply: 87
